measurementDescription: Gastric mucous membrane trouble experiment using rats
Assay type: in vivo, Wistar-strain male rats
studyConditions: rat, in vivo; oral; fasted 18 hours; read-out: UD50 (50% gastric ulcer-inducing dose)
metricName: TD50 at 35 h (mg/kg)
Numbers only; they are read as mg/kg.

Can you share its TD50 at 35 h? I mean this compound: CC(C(=O)O)c1ccc(CC2CCCC2=O)cc1 (stereo not shown) [compound 1, Loxoprofen, reference compound]
4.7

---

measurementDescription: Gastric mucous membrane trouble experiment using rats
Type: in vivo, Wistar-strain male rats
studyConditions: rat, in vivo, po
metricName: TD50 at 35 h (mg/kg)
Numbers only; they are read as mg/kg.

Can you share its TD50 at 35 h? I mean this molecule: CC(C(=O)O)c1ccc(CC2CCCCC2=O)c(Cl)c1 (stereo not shown)
5.6

---

System: Carrageenin-induced paw edema
measurementDescription: Carrageenin-induced paw edema experiment using rats
Assay type: in vivo, Wistar-strain male rats
studyConditions: Rattus norvegicus, 3 h; oral, 0.5 mg/kg; three hours after induction; vs control; read-out: Inhibition rate (edema inhibition rate)
So basically: inhibition in vivo at 0.5 mg/kg at 50% or higher? That is yes (1). Lower than 50%? That is no (0).

Assess whether reported inhibition in vivo at 0.5 mg/kg for CC(C(=O)O)c1ccc(C[C@H]2CCC[C@@H]2O)c(Cl)c1 (stereo partly drawn) [Example 44] sits at 50% or higher.
yes (1)

Assess whether reported inhibition in vivo at 0.5 mg/kg for CC(C(=O)O)c1ccc(C[C@H]2CCCC[C@@H]2O)c(F)c1 (relative stereo) [Example 31] sits at 50% or higher.
yes (1)

Assess whether reported inhibition in vivo at 0.5 mg/kg for CC(C(=O)O)c1ccc(CC2CCCC2=O)cc1 (stereo not drawn) [compound 1, Loxoprofen, reference compound] sits at 50% or higher.
no (0)

Assess whether reported inhibition in vivo at 0.5 mg/kg for CC(C(=O)O)c1ccc(C[C@H]2CCCC[C@H]2O)c(F)c1 (relative stereo) [Example 32] sits at 50% or higher.
no (0)

Assess whether reported inhibition in vivo at 0.5 mg/kg for CC(C(=O)O)c1ccc(CC2CCCC2)c(Cl)c1 (stereo not drawn) [compound 3, reference compound] sits at 50% or higher.
no (0)

Assess whether reported inhibition in vivo at 0.5 mg/kg for CC(C(=O)O)c1ccc(C[C@@H]2CCCC[C@H]2O)c(Cl)c1 (relative stereo) [Example 24] sits at 50% or higher.
no (0)

---

System: Carrageenin-induced paw edema
measurementDescription: Carrageenin-induced paw edema experiment using rats
Format: in vivo, Wistar-strain male rats
studyConditions: Rattus norvegicus, 3 h; oral, 0.5 mg/kg; three hours after induction; vs control; read-out: Inhibition rate (edema inhibition rate)
Provide the recorded inhibition in vivo at 0.5 mg/kg for the entries that follow.
Please make sure the unit comes right after the number.

Can you share its inhibition in vivo at 0.5 mg/kg? I mean this compound: CC(C(=O)O)c1ccc(CC2CCCCC2=O)c(Cl)c1 (stereo not drawn)
49.5%

Can you share its inhibition in vivo at 0.5 mg/kg? I mean this compound: CC(C(=O)O)c1ccc(CC2CCCCC2=O)c(F)c1 (stereo not drawn)
50.2%

Can you share its inhibition in vivo at 0.5 mg/kg? I mean this compound: CC(C(=O)O)c1ccc(CC2CCCC2=O)c(Cl)c1 (stereo not drawn)
48.5%

Data origin: patent US5434292A
